- EXPERIMENTAL DETAILS: Absorption and emission spectra of dyes in different solvents
- Format: physicochemical
- Design: key: Stokes shift in nm
- CONDITION SET: Stokes shift to absorption peak 1; solvent DMSO
Could you please report measured Δλ1 for the items listed next?
One number for each entry.

Reference set, count: 3
CCN1/C(=C/C=C/C(=C/C2=[N+](CC)c3ccccc3C2(C)C)N(CCO)CCO)C(C)(C)c2ccccc21; 97
CCN1/C(=C/C=C/C(=C/C2=[N+](CC)c3ccccc3C2(C)C)N(Cc2ccccc2)Cc2ccccc2)C(C)(C)c2ccccc21; 90
CCN1/C(=C/C=C/C(=C/C2=[N+](CC)c3ccccc3C2(C)C)NCc2ccccc2)C(C)(C)c2ccccc21; 92

From here, focus on the item given below.
Problem: // query Δλ1 value for entry "CCN(CC)C(=C\C1=[N+](CC)c2ccccc2C1(C)C)/C=C/C=C1/N(CC)c2ccccc2C1(C)C"
Result: 92

###

- EXPERIMENTAL DETAILS: Absorption and emission spectra of dyes in different solvents
- Assay type: physicochemical
- CONDITION SET: solvent Ethanol
QUANTITY: λbs2 (nm)
Give bare numbers, in nm.

CCN1/C(=C/C=C/C(N)=C/C2=[N+](CC)c3ccccc3C2(C)C)C(C)(C)c2ccccc21 [Dye IIa]; 420
CCN(CC)C(=C\C1=[N+](CC)c2ccccc2C1(C)C)/C=C/C=C1/N(CC)c2ccccc2C1(C)C [Dye IId]; 453
CCN1/C(=C/C=C/C(=C/C2=[N+](CC)c3ccccc3C2(C)C)N(Cc2ccccc2)Cc2ccccc2)C(C)(C)c2ccccc21 [Dye IIf]; 452
CCN1/C(=C/C=C/C(=C/C2=[N+](CC)c3ccccc3C2(C)C)Nc2ccccc2)C(C)(C)c2ccccc21 [Dye IIg]; 434
CCN1/C(=C/C=C/C(=C/C2=[N+](CC)c3ccccc3C2(C)C)NCCO)C(C)(C)c2ccccc21 [Dye IIb]; 435

Parameter requested: λbs2. Apply to each item below.
1. CCN1/C(=C/C=C/C(=C/C2=[N+](CC)c3ccccc3C2(C)C)NCc2ccccc2)C(C)(C)c2ccccc21 [Dye IIe]
2. CCN1/C(=C/C=C/C(=C/C2=[N+](CC)c3ccccc3C2(C)C)N(CCO)CCO)C(C)(C)c2ccccc21 [Dye IIc]

Result:
1. 429
2. 451

###

Record form. Attribute: ε1 (molar extinction coefficient). Fill in for each entry.
- EXPERIMENTAL DETAILS: Absorption and emission spectra of dyes in different solvents
- Format: physicochemical
- Design: scale not given here
- CONDITION SET: solvent Ethanol
The reply must contain the numeric value and, after it, the unit.

CCN1/C(=C/C=C/C(=C/C2=[N+](CC)c3ccccc3C2(C)C)N(Cc2ccccc2)Cc2ccccc2)C(C)(C)c2ccccc21; 3.4 cm^−1M
CCN1/C(=C/C=C/C(=C/C2=[N+](CC)c3ccccc3C2(C)C)NCCO)C(C)(C)c2ccccc21; 3.3 cm^−1M
CCN1/C(=C/C=C/C(=C/C2=[N+](CC)c3ccccc3C2(C)C)NCc2ccccc2)C(C)(C)c2ccccc21; 2.8 cm^−1M
CCN(CC)C(=C\C1=[N+](CC)c2ccccc2C1(C)C)/C=C/C=C1/N(CC)c2ccccc2C1(C)C; 3.5 cm^−1M
CCN1/C(=C/C=C/C(N)=C/C2=[N+](CC)c3ccccc3C2(C)C)C(C)(C)c2ccccc21; 4.8 cm^−1M

State recorded ε1 (molar extinction coefficient) for all listed compounds.
1. CCN1/C(=C/C=C/C(=C/C2=[N+](CC)c3ccccc3C2(C)C)N(CCO)CCO)C(C)(C)c2ccccc21
2. CCN1/C(=C/C=C/C(=C/C2=[N+](CC)c3ccccc3C2(C)C)Nc2ccccc2)C(C)(C)c2ccccc21

Result:
["2.8 cm^−1M", "2.5 cm^−1M"]

###

For each of the molecules below, state its Δλ1.
- EXPERIMENTAL DETAILS: Absorption and emission spectra of dyes in different solvents
- Assay type: physicochemical
- Parameters: key: Stokes shift in nm
- CONDITION SET: Stokes shift to absorption peak 1; solvent DMSO
Answers are plain numbers.

Solved cases below.
CCN1/C(=C/C=C/C(=C/C2=[N+](CC)c3ccccc3C2(C)C)NCCO)C(C)(C)c2ccccc21; 91
CCN1/C(=C/C=C/C(N)=C/C2=[N+](CC)c3ccccc3C2(C)C)C(C)(C)c2ccccc21; 75

Here's the next entry for you.
Problem: Suppose we examine the molecule "CCN1/C(=C/C=C/C(=C/C2=[N+](CC)c3ccccc3C2(C)C)Nc2ccccc2)C(C)(C)c2ccccc21" ; what Δλ1 value has been reported?
Result: 80

###

- EXPERIMENTAL DETAILS: Absorption and emission spectra of dyes in different solvents
- Format: physicochemical
- Design: scale not given here
- CONDITION SET: solvent DMSO
QUANTITY: ε2 (molar extinction coefficient)
Provide a numeric answer, followed by its unit.

For each listed entry, give its ε2 (molar extinction coefficient).
1. CCN1/C(=C/C=C/C(=C/C2=[N+](CC)c3ccccc3C2(C)C)Nc2ccccc2)C(C)(C)c2ccccc21
2. CCN1/C(=C/C=C/C(N)=C/C2=[N+](CC)c3ccccc3C2(C)C)C(C)(C)c2ccccc21
3. CCN(CC)C(=C\C1=[N+](CC)c2ccccc2C1(C)C)/C=C/C=C1/N(CC)c2ccccc2C1(C)C

Result:
2.1 cm^−1M
1.7 cm^−1M
2.7 cm^−1M

###

- EXPERIMENTAL DETAILS: Absorption and emission spectra of dyes in different solvents
- Assay type: physicochemical
- CONDITION SET: solvent DMSO
QUANTITY: λabs1 (nm)
Give bare numbers, in nm.

CCN(CC)C(=C\C1=[N+](CC)c2ccccc2C1(C)C)/C=C/C=C1/N(CC)c2ccccc2C1(C)C; 508
CCN1/C(=C/C=C/C(=C/C2=[N+](CC)c3ccccc3C2(C)C)NCCO)C(C)(C)c2ccccc21; 515
CCN1/C(=C/C=C/C(=C/C2=[N+](CC)c3ccccc3C2(C)C)N(Cc2ccccc2)Cc2ccccc2)C(C)(C)c2ccccc21; 521
CCN1/C(=C/C=C/C(=C/C2=[N+](CC)c3ccccc3C2(C)C)Nc2ccccc2)C(C)(C)c2ccccc21; 566
CCN1/C(=C/C=C/C(=C/C2=[N+](CC)c3ccccc3C2(C)C)N(CCO)CCO)C(C)(C)c2ccccc21; 515

For every listed record, write down its λabs1.
1. CCN1/C(=C/C=C/C(=C/C2=[N+](CC)c3ccccc3C2(C)C)NCc2ccccc2)C(C)(C)c2ccccc21
2. CCN1/C(=C/C=C/C(N)=C/C2=[N+](CC)c3ccccc3C2(C)C)C(C)(C)c2ccccc21

Result:
515
533

###

- EXPERIMENTAL DETAILS: Measurement of fluorescence quantum yield (Rhodamine B in ethanol as reference)
- Type: physicochemical
- CONDITION SET: solvent Methanol
QUANTITY: Φ2 (fluorescence quantum yield)
Numbers only.

CCN1/C(=C/C=C/C(N)=C/C2=[N+](CC)c3ccccc3C2(C)C)C(C)(C)c2ccccc21 [Dye IIa]; 0.004
CCN1/C(=C/C=C/C(=C/C2=[N+](CC)c3ccccc3C2(C)C)N(Cc2ccccc2)Cc2ccccc2)C(C)(C)c2ccccc21 [Dye IIf]; 0.004
CCN1/C(=C/C=C/C(=C/C2=[N+](CC)c3ccccc3C2(C)C)NCCO)C(C)(C)c2ccccc21 [Dye IIb]; 0.008
CCN1/C(=C/C=C/C(=C/C2=[N+](CC)c3ccccc3C2(C)C)N(CCO)CCO)C(C)(C)c2ccccc21 [Dye IIc]; 0.008
CCN1/C(=C/C=C/C(=C/C2=[N+](CC)c3ccccc3C2(C)C)Nc2ccccc2)C(C)(C)c2ccccc21 [Dye IIg]; 0.004

Please report Φ2 (fluorescence quantum yield) for every entry that follows.
1. CCN1/C(=C/C=C/C(=C/C2=[N+](CC)c3ccccc3C2(C)C)NCc2ccccc2)C(C)(C)c2ccccc21 [Dye IIe]
2. CCN(CC)C(=C\C1=[N+](CC)c2ccccc2C1(C)C)/C=C/C=C1/N(CC)c2ccccc2C1(C)C [Dye IId]

Result:
1: 0.007; 2: 0.005

###

- EXPERIMENTAL DETAILS: Measurement of fluorescence quantum yield (Rhodamine B in ethanol as reference)
- Format: physicochemical
- CONDITION SET: solvent Water
QUANTITY: Φ1 (fluorescence quantum yield)
One number for each entry.

CCN1/C(=C/C=C/C(N)=C/C2=[N+](CC)c3ccccc3C2(C)C)C(C)(C)c2ccccc21; 0.002
CCN1/C(=C/C=C/C(=C/C2=[N+](CC)c3ccccc3C2(C)C)Nc2ccccc2)C(C)(C)c2ccccc21; 0.003
CCN(CC)C(=C\C1=[N+](CC)c2ccccc2C1(C)C)/C=C/C=C1/N(CC)c2ccccc2C1(C)C; 0.001

# batch size: 3; output Φ1 (fluorescence quantum yield) per entry
1. CCN1/C(=C/C=C/C(=C/C2=[N+](CC)c3ccccc3C2(C)C)N(Cc2ccccc2)Cc2ccccc2)C(C)(C)c2ccccc21
2. CCN1/C(=C/C=C/C(=C/C2=[N+](CC)c3ccccc3C2(C)C)N(CCO)CCO)C(C)(C)c2ccccc21
3. CCN1/C(=C/C=C/C(=C/C2=[N+](CC)c3ccccc3C2(C)C)NCCO)C(C)(C)c2ccccc21

Result:
1: 0.001; 2: 0.001; 3: 0.002

Problem: Entry "CCN1/C(=C/C=C/C(=C/C2=[N+](CC)c3ccccc3C2(C)C)NCc2ccccc2)C(C)(C)c2ccccc21" : reported Φ1 (fluorescence quantum yield) = ?
Result: 0.003
